// provenance: ChEMBL document CHEMBL4261550

test: Plasma concentration in PMA-stimulated C57BL6 mouse neutrophil degranulation model at 30 mg/kg, po after 20 mins; assay type: ADME, organism-based
experimental_endpoint: concentration at 20 min (µM)
Answer in µM, number only, no unit symbol.

Find the recorded concentration at 20 min belonging to Nc1nc(OCc2ccccc2)c2[nH]nnc2n1 and report it.
180
